Origin of values: patent US4209588A

# System: Ps. fluoroescens NIHJB-254
Quick reference for MIC among some compounds

Recorded results for 5 compounds are shown here.
>  <compound>
CC[C@@]1(O)C[C@H](O[C@H]2C[C@H](N(C)C)[C@H](O[C@H]3C[C@H](O)[C@H](O[C@H]4CC[C@H](O)[C@H](C)O4)[C@H](C)O3)[C@H](C)O2)c2c(cc3c(c2O)C(=O)c2c(O)cccc2C3=O)[C@H]1C(=O)OC [MA 144-N1]

>  <MIC>
> 100 µg/mL

$$$$
>  <compound>
CC[C@@]1(O)C[C@H](O[C@H]2C[C@H](N(C)C)[C@H](O[C@H]3C[C@H](O)[C@H](O[C@H]4C=CC(=O)[C@H](C)O4)[C@H](C)O3)[C@H](C)O2)c2c(cc3c(c2O)C(=O)c2c(O)cccc2C3=O)[C@H]1C(=O)OC [MA 144-Y]

>  <MIC>
> 100 µg/mL

$$$$
>  <compound>
CC[C@@]1(O)C[C@H](O[C@H]2C[C@H](N(C)C)[C@H](O[C@H]3C[C@H](O)[C@H](O[C@H]4C[C@H](O)[C@H](O)[C@H](C)O4)[C@H](C)O3)[C@H](C)O2)c2c(cc3c(c2O)C(=O)c2c(O)ccc(O)c2C3=O)[C@H]1C(=O)OC [MA 144-U2]

>  <MIC>
> 100 µg/mL

$$$$
>  <compound>
CC[C@@]1(O)C[C@H](O[C@H]2C[C@H](N(C)C)[C@H](O[C@H]3C[C@H](O)[C@H](OC4CCC(=O)C(C)O4)[C@H](C)O3)[C@H](C)O2)c2c(cc3c(c2O)C(=O)c2c(O)ccc(O)c2C3=O)[C@H]1C(=O)OC (stereo partly drawn)

>  <MIC>
100 µg/mL

$$$$
>  <compound>
CC[C@@]1(O)C[C@H](O[C@H]2C[C@H](NC)[C@H](O[C@H]3C[C@H](O)[C@H](O[C@H]4CCC(=O)[C@H](C)O4)[C@H](C)O3)[C@H](C)O2)c2c(cc3c(c2O)C(=O)c2c(O)cccc2C3=O)[C@H]1C(=O)OC [MA 144-L]

>  <MIC>
100 µg/mL

$$$$

Record CC[C@@]1(O)C[C@H](O[C@H]2C[C@H](N(C)C)[C@H](O[C@H]3C[C@H](O)[C@H](O[C@H]4C[C@H](O)[C@H](O)[C@H](C)O4)[C@H](C)O3)[C@H](C)O2)c2c(cc3c(c2O)C(=O)c2c(O)cccc2C3=O)[C@H]1C(=O)OC [MA 144-U1] has Ps. fluoroescens NIHJB-254 MIC equal to > 100 µg/mL

Record CC[C@@]1(O)C[C@H](O[C@H]2C[C@H](N(C)C)[C@H](O[C@H]3C[C@H](O)[C@H](O)[C@H](C)O3)[C@H](C)O2)c2c(cc3c(c2O)C(=O)c2c(O)cccc2C3=O)[C@H]1C(=O)OC [MA 144-S1] has Ps. fluoroescens NIHJB-254 MIC equal to > 100 µg/mL

Record CC[C@@]1(O)C[C@H](O[C@H]2C[C@H](N(C)C)[C@H](O[C@H]3C[C@H](O)[C@H](O)[C@H](C)O3)[C@H](C)O2)c2c(cc3c(c2O)C(=O)c2c(O)ccc(O)c2C3=O)[C@H]1C(=O)OC [MA 144-S2] has Ps. fluoroescens NIHJB-254 MIC equal to > 100 µg/mL

Record CC[C@@]1(O)C[C@H](O[C@H]2C[C@H](N(C)C)[C@H](O[C@H]3C[C@H](O)[C@H](OC4CCC(=O)C(C)O4)[C@H](C)O3)[C@H](C)O2)c2c(cc3c(c2O)C(=O)c2c(O)cccc2C3=O)[C@H]1C(=O)OC (stereo partly drawn) has Ps. fluoroescens NIHJB-254 MIC equal to 100 µg/mL

###

Bac. subtilis ATCC 6633: reported MIC for various compounds.
Hi! Could you send only the number? It should be in µg/mL, unit omitted.

Recorded results for 4 compounds are shown here.
>  <compound>
CC[C@@]1(O)C[C@H](O[C@H]2C[C@H](N(C)C)[C@H](O[C@H]3C[C@H](O)[C@H](O[C@H]4C[C@H](O)[C@H](O)[C@H](C)O4)[C@H](C)O3)[C@H](C)O2)c2c(cc3c(c2O)C(=O)c2c(O)ccc(O)c2C3=O)[C@H]1C(=O)OC

>  <assaySystem>
Bac. subtilis ATCC 6633

>  <MIC / µg/mL>
3.1

$$$$
>  <compound>
CC[C@@]1(O)C[C@H](O[C@H]2C[C@H](N(C)C)[C@H](O[C@H]3C[C@H](O)[C@H](O[C@H]4C=CC(=O)[C@H](C)O4)[C@H](C)O3)[C@H](C)O2)c2c(cc3c(c2O)C(=O)c2c(O)cccc2C3=O)[C@H]1C(=O)OC

>  <assaySystem>
Bac. subtilis ATCC 6633

>  <MIC / µg/mL>
0.2

$$$$
>  <compound>
CC[C@@]1(O)C[C@H](O[C@H]2C[C@H](N(C)C)[C@H](O[C@H]3C[C@H](O)[C@H](O[C@H]4CC[C@H](O)[C@H](C)O4)[C@H](C)O3)[C@H](C)O2)c2c(cc3c(c2O)C(=O)c2c(O)cccc2C3=O)[C@H]1C(=O)OC

>  <assaySystem>
Bac. subtilis ATCC 6633

>  <MIC / µg/mL>
3.1

$$$$
>  <compound>
CC[C@@]1(O)C[C@H](O[C@H]2C[C@H](N(C)C)[C@H](O[C@H]3C[C@H](O)[C@H](OC4CCC(=O)C(C)O4)[C@H](C)O3)[C@H](C)O2)c2c(cc3c(c2O)C(=O)c2c(O)cccc2C3=O)[C@H]1C(=O)OC (some centres unmarked)

>  <assaySystem>
Bac. subtilis ATCC 6633

>  <MIC / µg/mL>
3.12

$$$$

# ---- query compound ----
Record `CC[C@@]1(O)C[C@H](O[C@H]2C[C@H](N(C)C)[C@H](O[C@H]3C[C@H](O)[C@H](O)[C@H](C)O3)[C@H](C)O2)c2c(cc3c(c2O)C(=O)c2c(O)cccc2C3=O)[C@H]1C(=O)OC` has Bac. subtilis ATCC 6633 MIC equal to 3.1

###

# System: solid and ascitic-type mammalian malignant tumors
# measurementNotes: Inhibitory action against solid and ascitic-type mammalian malignant tumors
# Assay type: in vivo, mammals
# settings: solid and ascitic-type mammalian tumors; in words
assayReadout: inhibitory action against malignant tumors

>  <molecule>
CC[C@@]1(O)C[C@H](O[C@H]2C[C@H](N(C)C)[C@H](O[C@H]3C[C@H](O)[C@H](O)[C@H](C)O3)[C@H](C)O2)c2c(cc3c(c2O)C(=O)c2c(O)cccc2C3=O)[C@H]1C(=O)OC [MA 144-S1]

>  <assaySystem>
solid and ascitic-type mammalian malignant tumors

>  <obsValue>
marked inhibitory action

$$$$
>  <molecule>
CC[C@@]1(O)C[C@H](O[C@H]2C[C@H](N(C)C)[C@H](O[C@H]3C[C@H](O)[C@H](O[C@H]4CC[C@H](O)[C@H](C)O4)[C@H](C)O3)[C@H](C)O2)c2c(cc3c(c2O)C(=O)c2c(O)cccc2C3=O)[C@H]1C(=O)OC [MA 144-N1]

>  <assaySystem>
solid and ascitic-type mammalian malignant tumors

>  <obsValue>
marked inhibitory action

$$$$
>  <molecule>
CC[C@@]1(O)C[C@H](O[C@H]2C[C@H](N(C)C)[C@H](O[C@H]3C[C@H](O)[C@H](O[C@H]4C=CC(=O)[C@H](C)O4)[C@H](C)O3)[C@H](C)O2)c2c(cc3c(c2O)C(=O)c2c(O)cccc2C3=O)[C@H]1C(=O)OC [MA 144-Y]

>  <assaySystem>
solid and ascitic-type mammalian malignant tumors

>  <obsValue>
marked inhibitory action

$$$$

###

Quick reference for MIC among some compounds
# Tested on: Sar. lutea ATCC 9341
Hi! Could you send only the number? It should be in µg/mL, unit omitted.

>  <compound>
CC[C@@]1(O)C[C@H](O[C@H]2C[C@H](N(C)C)[C@H](O[C@H]3C[C@H](O)[C@H](O[C@H]4C[C@H](O)[C@H](O)[C@H](C)O4)[C@H](C)O3)[C@H](C)O2)c2c(cc3c(c2O)C(=O)c2c(O)cccc2C3=O)[C@H]1C(=O)OC

>  <MIC / µg/mL>
1.56

$$$$

MIC in this record for `CC[C@@]1(O)C[C@H](O[C@H]2C[C@H](N(C)C)[C@H](O[C@H]3C[C@H](O)[C@H](O)[C@H](C)O3)[C@H](C)O2)c2c(cc3c(c2O)C(=O)c2c(O)cccc2C3=O)[C@H]1C(=O)OC` : 1.56

MIC in this record for `CC[C@@]1(O)C[C@H](O[C@H]2C[C@H](N(C)C)[C@H](O[C@H]3C[C@H](O)[C@H](O[C@H]4C=CC(=O)[C@H](C)O4)[C@H](C)O3)[C@H](C)O2)c2c(cc3c(c2O)C(=O)c2c(O)cccc2C3=O)[C@H]1C(=O)OC` : 0.2

MIC in this record for CC[C@@]1(O)C[C@H](O[C@H]2C[C@H](N(C)C)[C@H](O[C@H]3C[C@H](O)[C@H](OC4CCC(=O)C(C)O4)[C@H](C)O3)[C@H](C)O2)c2c(cc3c(c2O)C(=O)c2c(O)ccc(O)c2C3=O)[C@H]1C(=O)OC (some centres unmarked) : 0.78

MIC in this record for CC[C@@]1(O)C[C@H](O[C@H]2C[C@H](N(C)C)[C@H](O[C@H]3C[C@H](O)[C@H](OC4CCC(=O)C(C)O4)[C@H](C)O3)[C@H](C)O2)c2c(cc3c(c2O)C(=O)c2c(O)cccc2C3=O)[C@H]1C(=O)OC (some centres unmarked) : 0.78
